These measurements were taken from patent US9156796B2.

target: human apelin receptor (Homo sapiens, UniProt P35414); construct: expressed in transfected cells; assay: Determination of agonism on the human apelin receptor by a calcium fluorescence assay (FLIPR); type: cell-based; conditions: HEK293 cells stably transfected with human apelin receptor and Giaq protein, Fluo-4 calcium fluorescence, read-out: EC50 (APJ agonism)
readout: EC50 (nM)

Examples from the recorded data:
CCC(CC)n1c(Cc2cccs2)nc2cc(C(=O)N[C@@H](CC(C)C)C(=O)NCc3ccc4c(c3)OCO4)ccc21 :: 5590
CCC(CC)n1c(Cc2cccs2)nc2cc(C(=O)NC(CC(C)C)C(C)(C)C(=O)O)ccc21 (single isomer, unassigned) [Example 464] :: 126
CC(C)C[C@H](NC(=O)c1ccc2c(c1)nc(Cc1cccs1)n2C1CCCC1)C(=O)O :: 2030
CC(C)C[C@H](NC(=O)c1ccc2c(c1)nc(Cc1cccs1)n2C1CCCC1C)C(=O)O (single isomer, unassigned) [Example 430] :: 1310
CCC(CC)n1c(CC2CCCO2)nc2cc(C(=O)N[C@@H](CC(C)C)C(=O)O)ccc21 (some centres unmarked) :: 1670

[a] CC(C)C[C@H](NC(=O)c1ccc2c(c1)nc(Cc1cccs1)n2C1CCCCC1C)C(=O)N(C)C (some centres unmarked)
[b] C[C@@H]1CCCC[C@H]1n1c(Cc2cccs2)nc2cc(C(=O)N[C@@H](CC3CCC3)C(=O)O)ccc21
Ask: For the pair a and b , which entry has the numerically smaller recorded EC50? Answer by quoting the chosen item's label.
Reply: b

* * *

Target: human apelin receptor (Homo sapiens)
Construct: expressed in transfected cells
Sequence (P35414 1-380): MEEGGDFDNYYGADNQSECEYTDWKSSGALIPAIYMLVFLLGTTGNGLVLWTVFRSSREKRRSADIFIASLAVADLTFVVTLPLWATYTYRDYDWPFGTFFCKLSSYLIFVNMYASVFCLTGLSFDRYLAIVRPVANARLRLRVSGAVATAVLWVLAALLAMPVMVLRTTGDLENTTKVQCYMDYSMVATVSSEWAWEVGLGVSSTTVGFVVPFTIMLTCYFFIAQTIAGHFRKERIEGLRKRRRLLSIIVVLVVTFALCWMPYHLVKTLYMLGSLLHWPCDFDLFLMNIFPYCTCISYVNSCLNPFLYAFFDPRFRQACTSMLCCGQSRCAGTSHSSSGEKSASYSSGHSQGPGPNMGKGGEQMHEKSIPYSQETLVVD
Test: Determination of agonism on the human apelin receptor by a calcium fluorescence assay (FLIPR)
Assay type: cell-based
Conditions: HEK293 cells stably transfected with human apelin receptor and Giaq protein, Fluo-4 calcium fluorescence, read-out: EC50 (APJ agonism)
pEC50: −log10 of the molar value.
readout: pEC50

CCC(CC)n1c(CC2CCCC2)nc2cc(C(=O)N[C@H](CO)[C@@H](C)CC)ccc21 :: 5.21
CCC(CC)n1c(Cc2cccs2)nc2cc(C(=O)N[C@@H](CC(C)C)C(=O)NCCC3CCCCN3Cc3ccccc3)ccc21 (stereo partly shown) :: 5.74
CCC(CC)n1c(Cc2cncs2)nc2cc(C(=O)N[C@H](CC(=O)O)CC(C)C)ccc21 :: 6.69

[P] CCC(CC)n1c(CC2CCCC2)nc2cc(C(=O)N[C@H](CC3CCCCC3)C(=O)O)ccc21
[Q] CCCC1CCN(CCCNC(=O)[C@H](CC(C)C)NC(=O)c2ccc3c(c2)nc(Cc2cccs2)n3C(CC)CC)CC1
[R] CCC[C@H](NC(=O)c1ccc2c(c1)nc(Cc1cccs1)n2[C@@H]1CCCC[C@H]1C)C(=O)O
Ask: Returns the items ordered by pEC50, from maximum to minimum. Labels, ranked as asked.
Reply: R, Q, P
(R: 6.86, Q: 6.00, P: 5.77)
